Assay: Half life in rat at 10 mg/kg, sc
Format: ADME, organism-based
Parameters: dose 10 mg/kg, route subcutaneous
Conditions: in vivo
measurement.label: half-life
Give me the value, and tack the unit on after it.

Exam item: Query half-life for CCCCC[C@H](O)/C=C/[C@H]1CCC(=O)N1CCc1ccc(C(=O)O)cc1
Marked response: 31.6 h

###

Experiment: Tmax in rat at 10 mg/kg, sc
Format: ADME, organism-based
Design: dose 10 mg/kg, route subcutaneous
Details: in vivo
measurement.label: Tmax (min)
Record the value in min, omitting the unit from your answer.

Exam item: Query Tmax for CCCCC[C@H](O)/C=C/[C@H]1CCC(=O)N1CCc1ccc(C(=O)O)cc1
Marked response: 15

###

Biological target: Prostaglandin E2 receptor EP2 subtype (Homo sapiens, UniProt P43116)
Sequence (P43116 whole entry): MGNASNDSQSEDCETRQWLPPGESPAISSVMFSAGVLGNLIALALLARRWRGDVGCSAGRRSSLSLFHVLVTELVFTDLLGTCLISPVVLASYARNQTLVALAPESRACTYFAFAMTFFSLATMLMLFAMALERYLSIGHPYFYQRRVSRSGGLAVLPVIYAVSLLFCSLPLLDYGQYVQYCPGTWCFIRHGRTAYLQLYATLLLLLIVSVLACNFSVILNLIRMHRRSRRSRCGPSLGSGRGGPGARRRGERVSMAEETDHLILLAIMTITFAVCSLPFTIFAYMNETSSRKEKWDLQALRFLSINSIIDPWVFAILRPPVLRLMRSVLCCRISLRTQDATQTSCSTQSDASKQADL
measurement.label: pKi
Friendly reminder that pKi comes from taking -log10 of the concentration in mol/L.

Some entries whose results are on file:
> print(dat)
                         structure.notation  measurement.label  reported.result
1  CCC[C@H](O)/C=C/[C@H]1CCC(=O)N1CCc1ccc(C(=O)O)cc1                pKi             4.60
2  CCCCC1([C@@H](O)/C=C/[C@H]2CCC(=O)N2CCc2ccc(C(=O)O)cc2)CCC1                pKi             7.68

Exam item: // fetch pKi for O=C(O)c1ccc(CCN2C(=O)CC[C@@H]2/C=C/[C@@H](O)Cc2cccc(Cl)c2)cc1 ; system: Prostaglandin E2 receptor EP2 subtype (Homo sapiens, UniProt P43116)
Marked response: 6.00

Exam item: // fetch pKi for CCCCC(C)(C)[C@H](O)/C=C/[C@H]1CCC(=O)N1CCc1ccc(C(=O)O)cc1 ; system: Prostaglandin E2 receptor EP2 subtype (Homo sapiens, UniProt P43116)
Marked response: 6.85

Exam item: // fetch pKi for CCCC[C@H](O)/C=C/[C@H]1CCC(=O)N1CCc1ccc(C(=O)O)cc1 ; system: Prostaglandin E2 receptor EP2 subtype (Homo sapiens, UniProt P43116)
Marked response: 6.37
